system: pigweed (Amaranthus retroflexus); test: Test A preemergence, pigweed; type: in vivo; conditions: 31 g ai/ha, 0 to 100 scale (0 no effect, 100 complete control), approx. 10 d
# Lookup of reported Plant response rating, Pigweed keyed by entry
property: Plant response rating, Pigweed

> print(dat)
                                   compound                               tgt  assay.result
1  CN1C[C@H](c2ccc(C(F)(F)F)cc2)[C@@](CO)(C(=O)Nc2cccc(F)c2F)C1=O  pigweed (Amaranthus retroflexus)             0
2  CC(=O)OC[C@@]1(C(=O)Nc2cccc(F)c2F)C(=O)N(C)C[C@@H]1c1ccc(C(F)(F)F)cc1  pigweed (Amaranthus retroflexus)            20
3  CC(C)NC(=O)C1(C(=O)Nc2cccc(F)c2F)C(=O)N(C)CC1c1ccc(C(F)(F)F)cc1 (stereo not shown)  pigweed (Amaranthus retroflexus)             0
4  CN1C[C@H](c2ccc(C(F)(F)F)cc2)[C@](CO)(C(=O)Nc2cccc(F)c2F)C1=O  pigweed (Amaranthus retroflexus)             0

The reported numbers originate from patent US11019818B2.
